Test method notes: in vivo
Parameters: species or system piglets (Landrace × large white)
Assay setup: male, Landrace × large white (Seghers Hybrid), pig, po, 120 ug
Measured metric: Cmax

Looking up NC(=O)CC[C@@H]1NC(=O)[C@H](Cc2ccccc2)NC(=O)[C@H](Cc2ccc(O)cc2)NC(=O)CCSSC[C@@H](C(=O)N2CCC[C@H]2C(=O)N[C@H](CCCN=C(N)N)C(=O)NCC(N)=O)NC(=O)[C@H](CC(N)=O)NC1=O , I see its Cmax listed as ~0.25 ng/mL

* * *

Test method notes: in vivo
Set-up: species or system piglets (Landrace × large white)
Assay setup: male, Landrace × large white (Seghers Hybrid), pig, 120 ug
Measured metric: CL/F (mL/min)
Express it in mL/min; write the number only.

Looking up NC(=O)CC[C@@H]1NC(=O)[C@H](Cc2ccccc2)NC(=O)[C@H](Cc2ccc(O)cc2)NC(=O)CCSSC[C@@H](C(=O)N2CCC[C@H]2C(=O)N[C@H](CCCN=C(N)N)C(=O)NCC(N)=O)NC(=O)[C@H](CC(N)=O)NC1=O [desmopressin, 1-desamino-8-D-arginine vasopressin] , I see its CL/F listed as 6580
